- Tested on: IGROV-1
- Assay Remarks: NCI tumour cell line growth inhibition, 48 h
Activity calls are given as the source filed them. Cut-off read from the data, not from the text of the source: active = GI50 up to about 1.1 µM and inactive = higher.
Reported GI50 values follow for various compounds

Q: GET /values?readout=GI50&system=IGROV-1&item= O=C=C=P(c1ccccc1)(c1ccccc1)c1ccccc1
A: 41.9 µM (inactive)

Q: GET /values?readout=GI50&system=IGROV-1&item= COc1cc2nc3n(c(=O)c2cc1OC)-c1ccc([N+](=O)[O-])cc1C3=O
A: 26.1 µM (inactive)

Q: GET /values?readout=GI50&system=IGROV-1&item= S=C1c2ccc(Cl)cc2-n2cnnc2C2CSCN12 (stereo unspecified)
A: > 100 µM (inactive)

Q: GET /values?readout=GI50&system=IGROV-1&item= S=C1Cc2c(-c3ccc(Cl)cc3)cc(-c3ccccc3)nc2-c2ccccc2N1
A: 3.83 µM (inactive)

Q: GET /values?readout=GI50&system=IGROV-1&item= CSc1nc(C)cc(Nc2ccc(O)c(CN3CCCCC3)c2)n1
A: 60.5 µM (inactive)

Q: GET /values?readout=GI50&system=IGROV-1&item= CCN(CC)c1nc(N(C)C)c2cc(OC)ccc2n1
A: 30.8 µM (inactive)

----------
- Tested on: HCT-116
- Assay Remarks: NCI tumour cell line growth inhibition, 48 h
Calls of active or inactive are those of the source. Cut-off read from the data, not from the text of the source: active = GI50 up to about 1.1 µM and inactive = higher.
I would appreciate it if you answered using one of these outcomes: 1 for active, 0 for inactive

Q: Call for entry COc1ccc(/C(CCl)=C(\Nc2ccccc2)c2ccc(OC)c(OC)c2)cc1OC :
A: 0

Q: Call for entry Cc1nc(-c2ccccc2)c(C)n2c1nc1ccccc12 :
A: 0

Q: Call for entry CC(C)C(Cl)CC/C(CBr)=C(\Cl)CCl (stereo not given) :
A: 0

Q: Call for entry CCSc1nc(-c2cccs2)nc2ccc(I)cc12 :
A: 0

Q: Call for entry COc1ccc(-c2cc(-c3ccco3)c(C#N)c(=S)n2C2OC(CO)C(O)C(O)C2O)cc1 (stereo not given) :
A: 0

Q: Call for entry O=C1c2c(O)ccc(O)c2C(=O)c2c(NCCNCCO)ccc(NCCNCCO)c21 :
A: 1

Q: Call for entry O=C(CNc1ccccc1C(=O)O)Nn1cnc2ccc(S(=O)(=O)Nc3ccccc3C(=O)O)cc2c1=O :
A: 0

Q: Call for entry CC(=O)Nc1ccc(-c2nnc(SCC(=O)Nc3ccc(Cl)cc3)o2)cc1 :
A: 0

Q: Call for entry Cn1cc/c(=N\N=c2/ccn(C)c3ccccc23)c2ccccc21 :
A: 0

Q: Call for entry O=C=C=P(c1ccccc1)(c1ccccc1)c1ccccc1 :
A: 0

----------
- Tested on: SK-OV-3
- Assay Remarks: NCI tumour cell line growth inhibition, 48 h
Activity calls are given as the source filed them. No stated cut-off is given here; in the data, active = GI50 up to about 1.1 µM and inactive = higher.
I would appreciate it if you answered using one of these outcomes: active, inactive

Compound	System	Category Label
O=C1c2cc3c(cc2CC1Br)CCC3 (centres undefined)	SK-OV-3	inactive
O=C(CNc1ccccc1C(=O)O)Nn1cnc2ccc(S(=O)(=O)Nc3ccccc3C(=O)O)cc2c1=O	SK-OV-3	inactive
S=C1c2ccc(Cl)cc2-n2cnnc2C2CSCN12 (centres undefined)	SK-OV-3	inactive

Q: Call for entry C/C(=N\Nc1nc2ccccc2[nH]1)c1ncccn1 :
A: active

Q: Call for entry CCCCCC(C[N+]1(C)CCOCC1)C(=O)/C=C/c1ccccc1 (centres undefined) :
A: inactive

----------
- Tested on: SR
- Assay Remarks: NCI tumour cell line growth inhibition, 48 h
Activity calls are given as the source filed them. Cut-off read from the data, not from the text of the source: active = GI50 up to about 1.1 µM and inactive = higher.
I would appreciate it if you answered using one of these outcomes: active, inactive

Q: Call for entry O=C(CC(=O)N1N=C(N(c2ccccc2)c2ccccc2)CC1c1ccccc1)Nc1cccc(Cl)c1 (centres undefined) :
A: inactive

Q: Call for entry Cc1nc2c(n1CCN(C)C)C(=O)c1ccccc1C2=O :
A: inactive

Q: Call for entry COC(=O)C1C(O)C(C)C(=O)C(C)/C=C\C=C(C)C(=O)Nc2c(C)c(OC(C)=O)c3c(c2O)C(=O)C(C)=C2OCOC(=C23)C(C)=CC(C)(O)C(O)C(C)C1O (centres undefined) :
A: inactive

----------
- Tested on: U-251
- Assay Remarks: NCI tumour cell line growth inhibition, 48 h
Activity calls are given as the source filed them. Cut-off read from the data, not from the text of the source: active = GI50 up to about 1.1 µM and inactive = higher.
Reported GI50 values follow for various compounds

Q: GET /values?readout=GI50&system=U-251&item= O=c1[nH]c(-c2ccc(Cl)cc2)cc2ccsc12
A: 3.14 µM (inactive)

Q: GET /values?readout=GI50&system=U-251&item= CC(=O)OC1C[C@@H](C)C2(C[C@H](O)c3ccoc3)C(=O)OC[C@]13C2CCC(O)C31CO1 (stereo not given in full)
A: > 100 µM (inactive)

Q: GET /values?readout=GI50&system=U-251&item= C[C@@H]1CC[C@]2(C)C3(C)CC[C@]2(OC3=O)[C@@]12CC(c1ccoc1)OC2=O (stereo not given in full)
A: 44.5 µM (inactive)

Q: GET /values?readout=GI50&system=U-251&item= C=C1C(=O)O[C@H]2C1C[C@@H](O)/C(C)=C/CC[C@@]1(C)O[C@H]21 (stereo not given in full)
A: 24.4 µM (inactive)

Q: GET /values?readout=GI50&system=U-251&item= CCOc1ccccc1NC(=O)C(C#N)C1=C(Cl)C(=O)c2ccccc2C1=O (stereo not given)
A: 1.71 µM (inactive)

----------
- System: SR
- Assay Remarks: NCI tumour cell line growth inhibition, 48 h
Activity calls are given as the source filed them. Rule as the data show it: active = GI50 up to about 1.1 µM and inactive = higher.
I would appreciate it if you answered using one of these outcomes: TRUE = active, FALSE = inactive

> print(dat)
                                   molecule  category.label
1  Cc1cccc2c(N)c3cccc(C(=O)NCC[N+](C)(C)Cc4c([N+](=O)[O-])ncn4C)c3nc12           FALSE
2  O=C1c2ccccc2C(=O)N1CC(O)COc1cccc2ccccc12 (stereo not drawn)           FALSE
3         O=c1[nH]c(-c2ccc(Cl)cc2)cc2ccsc12            TRUE
4  CCOC(=O)N1CCc2cc(OC)c(OC)cc2/C1=C/c1ccc(OC)c(OC)c1           FALSE

Q: Call for entry O=C(/C=C/c1ccccc1)/C=C/c1ccccc1 :
A: FALSE

Q: Call for entry Nc1nc(O)c(Br)c(-c2cccc([N+](=O)[O-])c2)n1 :
A: FALSE

Q: Call for entry O=C1c2cc3ccccc3cc2C2(c3ccc(Cl)cc3)N[C@H]3CCCC[C@@H]3N12 (stereo partly drawn) :
A: FALSE

Q: Call for entry COc1cc(NCc2ccc3nc(OC)c(OC)nc3c2)cc(OC)c1OC :
A: FALSE

Q: Call for entry CCCCCC(=O)N[C@H]1CCc2cc(OC)c(OC)c(OC)c2-c2ccc(SC)c(=O)cc21 :
A: TRUE

Q: Call for entry Nc1nc(N)c(-c2ccc(Cl)cc2)c(CCC(=O)Nc2cccc(C(F)(F)F)c2)n1 :
A: FALSE

Q: Call for entry O=c1[nH]c2ccc(C(F)(F)F)cc2nc1C(F)(F)F :
A: FALSE

Q: Call for entry S=C1c2ccc(Cl)cc2-n2cnnc2C2CSCN12 (stereo not drawn) :
A: FALSE

Q: Call for entry CC(C)=CCC/C(=C/CC/C(=C\CCc1ccoc1)C(=O)O)C(=O)O :
A: FALSE

Q: Call for entry Cc1cc(C)nc(NC(=O)COc2ccc(Cl)cc2)c1 :
A: FALSE

Q: Call for entry CCOc1ccc(NCc2cc(OC)c(OC)c(OC)c2)cc1 :
A: TRUE

Q: Call for entry CC(=O)OCC1=C(C(=O)O)N2C(=O)C(NC(=O)CSc3ccncc3)C2SC1 (stereo not drawn) :
A: FALSE

Q: Call for entry Cc1nc(-c2ccccc2)c(C)n2c1nc1ccccc12 :
A: FALSE

Q: Call for entry Cc1cc(CC(O)(C(F)(F)F)C(F)(F)F)cc(CC(O)(C(F)(F)F)C(F)(F)F)n1 :
A: FALSE

----------
- System: HCT-116
- Assay Remarks: NCI tumour cell line growth inhibition, 48 h
Activity calls are given as the source filed them. Rule as the data show it: active = GI50 up to about 1.1 µM and inactive = higher.
I would appreciate it if you answered using one of these outcomes: Yes = active, No = inactive

See these solved cases before continuing.
Molecule	System	Category Label
Cc1cc2c(=O)cc(-c3ccc(Cl)cc3)oc2c(C(=O)O)c1C	HCT-116	No
COc1c(CC(C)=O)ccc2c1C(=O)c1ccc(C=O)c(OC(C)=O)c1C2=O	HCT-116	No
CN(C)Cc1cc(C(=O)/C=C/c2c(Cl)cccc2Cl)cc(CN(C)C)c1O	HCT-116	No
CO[C@H]1[C@H](O)[C@H](O[C@H]2CC[C@@]3(C)[C@H](CC[C@@H]4[C@@H]3CC[C@]3(C)[C@@H](C5=CC(=O)OC5)CC[C@]43O)C2)O[C@@H](C)[C@@H]1O [NERIIFOLIN]	HCT-116	Yes
CN(C)c1ccc(/N=N/c2ccccn2)cc1	HCT-116	No
COc1ccc(C[C@H](N)C(=O)N2C[C@H](CO)C[C@H](n3ccc(=O)[nH]c3=O)C2)cc1	HCT-116	No
O=[N+]([O-])c1cccc2nc3ccccc3c(NCCCn3ccnc3[N+](=O)[O-])c12	HCT-116	Yes
CC(=O)c1csc2c1C(=O)c1ccccc1C2=O	HCT-116	No
O=C1Sc2sc(=S)sc2SC1c1ccccc1 (centres undefined)	HCT-116	No
CC(C)=CCC/C(=C/CC/C(=C\CCc1ccoc1)C(=O)O)C(=O)O	HCT-116	No

Q: Call for entry Clc1ccc(OCc2nnc3n2N=C(c2ccc(Br)cc2)CS3)cc1 :
A: No
